target: LK35.2-hPD-L1 cells / PE-labeled PD-1-Ig (Homo sapiens)
Construct: expressed in transfected cells; host or cells: LK35.2 mouse B cell line
Sequence (Q9NZQ7 19-290): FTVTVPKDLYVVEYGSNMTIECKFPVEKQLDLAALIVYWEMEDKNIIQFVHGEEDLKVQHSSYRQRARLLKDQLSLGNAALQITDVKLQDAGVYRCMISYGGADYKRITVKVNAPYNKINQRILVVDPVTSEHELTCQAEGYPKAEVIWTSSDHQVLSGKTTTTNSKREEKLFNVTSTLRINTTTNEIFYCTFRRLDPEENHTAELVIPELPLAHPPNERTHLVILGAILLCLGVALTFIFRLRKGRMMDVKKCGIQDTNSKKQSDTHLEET
assay-summary: LK35.2-hPD-L1 cell binding high-content screening assay
Type: cell-based
measurement-parameters: cell binding assay, cell line not given; cluster symbol; read-out: CBA IC50 cluster
Positions of bridges follow the written chain, without caps; N, C: chain ends. Non-standard residues stand in square brackets, D forms with d. Residues, ends and D or L forms follow the SMILES beside them. Bip = N[C@@H](Cc1ccc(-c2ccccc2)cc1)C(=O)O; NMeF = CN[C@@H](Cc1ccccc1)C(=O)O; NMeNle = CCCC[C@H](NC)C(=O)O; Sar = CNCC(=O)O
measure: IC50

Ask | Fill blank: measured IC50 of the molecule CCCC[C@H]1C(=O)N(C)CC(=O)N[C@@H](CC(=O)O)C(=O)N[C@@H](C(C)C)C(=O)N(C)[C@@H](Cc2ccccc2)C(=O)N[C@@H](Cc2ccc(O)cc2)C(=O)N(C)CC(=O)N[C@@H](Cc2c[nH]c3ccccc23)C(=O)N[C@@H](Cc2ccc(-c3ccccc3)cc2)C(=O)N[C@@H](CC(C)C)C(=O)N[C@H](C(=O)NCC(N)=O)CSCC(=O)N[C@@H](Cc2ccccc2)C(=O)N(C)[C@@H](Cc2ccccc2)C(=O)N1C [Example 3547] ({CH2CO}-F[NMeF][NMeNle][Sar]DV[NMeF]Y[Sar]W[Bip]LCG-NH2; thioether N-13) is ____.
Reply | > 74.3 nM

----------
target: LK35.2-hPD-L1 cells / PE-labeled PD-1-Ig (Homo sapiens)
Construct: expressed in transfected cells; host or cells: LK35.2 mouse B cell line
assay-summary: LK35.2-hPD-L1 cell binding high-content screening assay
Type: cell-based
measurement-parameters: cluster symbol; cell line of CBA not given (LK35.2-hPD-L1 or 293T-hPD-L1); read-out: CBA IC50 cluster
Positions of bridges follow the written chain, without caps; N, C: chain ends. Non-standard residues stand in square brackets, D forms with d. Residues, ends and D or L forms follow the SMILES beside them. Ala(2-furyl) = N[C@@H](Cc1ccco1)C(=O)O; NMeNle = CCCC[C@H](NC)C(=O)O; NMeA = CN[C@@H](C)C(=O)O; Sar = CNCC(=O)O
measure: IC50

Ask | # input compound: CCCC[C@H]1C(=O)N(C)[C@@H](CCCC)C(=O)N[C@@H](CCCNC(=N)N)C(=O)N[C@H](C(=O)NCC(N)=O)CSCC(=O)N[C@@H](Cc2ccco2)C(=O)N(C)[C@@H](C)C(=O)N[C@@H](CC(N)=O)C(=O)N2CCC[C@H]2C(=O)N[C@@H](Cc2cnc[nH]2)C(=O)N[C@@H](CC(C)C)C(=O)N(C)CC(=O)N[C@@H](Cc2c[nH]c3ccccc23)C(=O)N[C@@H](CO)C(=O)N[C@@H](Cc2c[nH]c3ccccc23)C(=O)N1C [Example 1099] ({CH2CO}-[Ala(2-furyl)][NMeA]NPHL[Sar]WSW[NMeNle][NMeNle]RCG-NH2; thioether N-14) ; wanted: its IC50
Reply | > 0.0743 µM

----------
target: Human PD-L1/PD-1 (Homo sapiens, UniProt Q9NZQ7)
Construct: made in house; host or cells: HEK293T
Sequence (Q9NZQ7 with tags, fused parts or gaps): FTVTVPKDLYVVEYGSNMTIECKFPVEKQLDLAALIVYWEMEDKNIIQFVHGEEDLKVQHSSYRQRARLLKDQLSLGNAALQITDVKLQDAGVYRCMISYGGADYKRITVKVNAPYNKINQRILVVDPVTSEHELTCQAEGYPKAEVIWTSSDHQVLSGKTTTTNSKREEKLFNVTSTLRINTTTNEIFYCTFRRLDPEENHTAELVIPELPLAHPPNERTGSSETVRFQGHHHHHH
assay-summary: HTRF PD-1-Ig/PD-L1-His binding assay (human PD-L1)
measurement-parameters: cluster symbol; read-out: HTRF IC50 cluster
pIC50: −log10 of the molar value. Positions of bridges follow the written chain, without caps; N, C: chain ends. Non-standard residues stand in square brackets, D forms with d. Residues, ends and D or L forms follow the SMILES beside them. ξ: configuration not given here. Bta = N[C@@H](Cc1csc2ccccc12)C(=O)O; NMeNle = CCCC[C@H](NC)C(=O)O; NMeM = CN[C@@H](CCSC)C(=O)O; NMeA = CN[C@@H](C)C(=O)O; ξC = NC(CS)C(=O)O
measure: pIC50

Ask | Reported pIC50 for CCCC[C@H]1C(=O)N[C@@H](CCCNC(=N)N)C(=O)NC(C(=O)NCC(N)=O)CSCC(=O)N[C@@H](Cc2ccc(O)cc2)C(=O)N(C)[C@@H](C)C(=O)N[C@@H](CC(N)=O)C(=O)N2CCC[C@H]2C(=O)N[C@@H](Cc2cnc[nH]2)C(=O)N[C@@H](CO)C(=O)N2CCC[C@H]2C(=O)N[C@@H](Cc2c[nH]c3ccccc23)C(=O)N[C@@H](CO)C(=O)N[C@@H](Cc2csc3ccccc23)C(=O)N(C)[C@@H](CCSC)C(=O)N1C (stereo partly shown) [Example 9112] ({CH2CO}-Y[NMeA]NPHSPWS[Bta][NMeM][NMeNle]R[ξC]G-NH2; thioether N-14) : what is it?
Reply | 8.17 to 9.41
